Recorded values, source patent US20220251215A1.

Target: HLA-A2 on T2 cells pulsed with FBXL22: 4-12 peptide (human)
Test: flow cytometry, 10 ug/ml, pulsed T2 cells
ratio of MFI, pulsed to unpulsed values by entry
Express it in ratio; write the number only.

[ask] Please give the measured ratio of MFI, pulsed to unpulsed for this binder: mAb28105P (antibody, human IgG4 S228P, kappa, V domains shown) VH: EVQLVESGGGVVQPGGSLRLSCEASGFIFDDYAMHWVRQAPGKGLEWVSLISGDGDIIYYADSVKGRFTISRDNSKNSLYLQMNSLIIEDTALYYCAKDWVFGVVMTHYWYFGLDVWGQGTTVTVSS VL: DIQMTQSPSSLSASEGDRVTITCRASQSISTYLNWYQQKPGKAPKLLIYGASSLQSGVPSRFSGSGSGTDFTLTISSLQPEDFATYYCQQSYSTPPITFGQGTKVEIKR
[reply] 0.5

Next:
[ask] Item mAb24959N (antibody, human IgG4 S228P, kappa, V domains shown) VH: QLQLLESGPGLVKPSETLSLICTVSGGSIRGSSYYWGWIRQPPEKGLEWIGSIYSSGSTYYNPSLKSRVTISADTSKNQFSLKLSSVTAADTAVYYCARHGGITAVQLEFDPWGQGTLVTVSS VL: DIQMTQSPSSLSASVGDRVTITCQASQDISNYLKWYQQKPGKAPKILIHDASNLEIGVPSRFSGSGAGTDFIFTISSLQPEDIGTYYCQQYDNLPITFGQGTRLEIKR has what recorded ratio of MFI, pulsed to unpulsed?
[reply] 0.5
